Target: Coagulation factor X (Homo sapiens, UniProt P00742)
Sequence (P00742 41-179 limits assumed): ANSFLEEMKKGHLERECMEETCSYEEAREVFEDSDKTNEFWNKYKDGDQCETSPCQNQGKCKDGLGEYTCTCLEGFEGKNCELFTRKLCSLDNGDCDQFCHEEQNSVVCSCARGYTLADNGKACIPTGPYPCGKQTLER
Sequence (P00742 235-488 limits assumed): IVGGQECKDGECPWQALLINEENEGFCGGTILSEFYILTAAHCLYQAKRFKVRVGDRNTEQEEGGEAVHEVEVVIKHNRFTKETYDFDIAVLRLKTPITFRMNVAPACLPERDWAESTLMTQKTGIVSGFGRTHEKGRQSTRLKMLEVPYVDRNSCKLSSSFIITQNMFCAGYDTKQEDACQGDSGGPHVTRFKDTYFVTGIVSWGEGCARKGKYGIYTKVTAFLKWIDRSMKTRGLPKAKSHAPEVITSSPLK
Test: In vitro inhibition of human Coagulation factor X.
QUANTITY_KIND: IC50 (nM)

For the compound shown here, N=C(N)N1CCC(C[C@@H](NS(=O)(=O)Cc2ccccc2-n2cnnn2)C(=O)NCC(=O)N[C@H]2CCCN(C(=N)N)C2O)CC1 (stereo partly drawn) , give the reported IC50.
2.6

(a) N=C(N)NCCC[C@@H](NC(=O)OCc1ccccc1)C(=O)NCC(=O)N[C@H]1CCCN(C(=N)N)C1O (stereo in doubt)
(b) N=C(N)NCCC[C@@H](NC(=O)OCc1ccccc1)C(=O)NCC(=O)N[C@H]1CCCN(C(=N)N)C1O (single isomer, unassigned)
Hi, I'm comparing a with b and wondering which one has the bigger number for IC50. Any idea? Selection: enter the item's label.
b
(b: 35 nM, a: 0.9 nM)

---

Molecular target: Coagulation factor X (Homo sapiens, UniProt P00742)
Assay: Concentration required to inhibit the cleavage of the chromogenic substrate by human enzyme Coagulation factor X in vitro
QUANTITY_KIND: pIC50
Scale explanation: pIC50 corresponds to minus log10 of a concentration expressed in moles per litre.

For the molecule shown here, N=C(N)N1CCC(C[C@@H](NS(=O)(=O)Cc2ccccc2C(=O)O)C(=O)NCC(=O)N[C@H]2CCCN(C(=N)N)C2O)CC1 (stereo partly specified) , give the reported pIC50.
8.28

---

Test: Ratio of inhibitory concentration of prothrombinase to that of human factor Xa was determined
QUANTITY_KIND: Ratio

For the molecule shown here, N=C(N)N1CCC(C[C@@H](NS(=O)(=O)Cc2ccccc2-n2cnnn2)C(=O)NCC(=O)N[C@H]2CCCN(C(=N)N)C2O)CC1 (stereo partly drawn) , give the reported Ratio.
3

For the molecule shown here, N=C(N)N1CCC(C[C@@H](NS(=O)(=O)Cc2cccc(C(=O)O)c2)C(=O)NCC(=O)N[C@H]2CCCN(C(=N)N)C2O)CC1 (stereo partly drawn) , give the reported Ratio.
0.9

For the molecule shown here, N=C(N)N1CCC(C[C@@H](NS(=O)(=O)Cc2ccccc2C(=O)O)C(=O)NCC(=O)N[C@H]2CCCN(C(=N)N)C2O)CC1 (stereo partly drawn) , give the reported Ratio.
2.3

For the molecule shown here, N=C(N)NCCC[C@@H](NC(=O)OCc1ccccc1)C(=O)NCC(=O)N[C@H]1CCCN(C(=N)N)C1O (single isomer, unassigned) , give the reported Ratio.
0.23

(A) N=C(N)N1CCC(C[C@@H](NS(=O)(=O)Cc2ccccc2)C(=O)NCC(=O)N[C@H]2CCCN(C(=N)N)C2O)CC1 (stereo partly drawn)
(B) N=C(N)N1CCCC(C[C@@H](NS(=O)(=O)Cc2ccccc2)C(=O)NCC(=O)N[C@H]2CCCN(C(=N)N)C2O)C1 (single isomer, unassigned)
Hi, I'm comparing A with B and wondering which one has the bigger number for Ratio. Any idea? Selection: enter the item's label.
A
(A: 3.7, B: 2)

---

Target: Coagulation factor X (Homo sapiens, UniProt P00742)
Experiment: Concentration required for classical fast inhibition of cleavage of the chromogenic substrate by human enzyme Coagulation factor X in vitro
pKi: −log10 of the molar value.
QUANTITY_KIND: pKi

For the compound shown here, N=C(N)N1CCC(C[C@@H](NS(=O)(=O)Cc2cccc(C(=O)O)c2)C(=O)NCC(=O)N[C@H]2CCCN(C(=N)N)C2O)CC1 (some centres not stated) , give the reported pKi.
7.80

For the compound shown here, N=C(N)N1CCC(C[C@@H](NS(=O)(=O)Cc2ccccc2-n2cnnn2)C(=O)NCC(=O)N[C@H]2CCCN(C(=N)N)C2O)CC1 (some centres not stated) , give the reported pKi.
7.64

---

Let's go through some IC50 measurements on Plasminogen (Homo sapiens, UniProt P00747) together.
Sequence (P00747 97-580 limits assumed): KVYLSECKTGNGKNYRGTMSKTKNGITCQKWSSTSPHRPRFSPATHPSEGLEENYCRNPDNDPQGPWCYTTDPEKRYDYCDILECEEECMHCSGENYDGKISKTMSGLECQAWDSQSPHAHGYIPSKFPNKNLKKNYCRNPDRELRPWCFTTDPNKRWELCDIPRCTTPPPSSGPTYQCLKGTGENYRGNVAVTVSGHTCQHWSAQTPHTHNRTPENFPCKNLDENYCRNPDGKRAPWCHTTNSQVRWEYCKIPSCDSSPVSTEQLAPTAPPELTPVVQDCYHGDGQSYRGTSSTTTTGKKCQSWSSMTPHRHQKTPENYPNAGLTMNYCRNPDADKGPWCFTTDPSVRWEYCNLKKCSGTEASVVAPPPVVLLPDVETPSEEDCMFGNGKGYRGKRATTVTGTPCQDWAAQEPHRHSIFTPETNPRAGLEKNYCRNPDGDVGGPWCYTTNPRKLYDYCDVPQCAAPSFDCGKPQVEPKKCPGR
Sequence (P00747 581-810 limits assumed): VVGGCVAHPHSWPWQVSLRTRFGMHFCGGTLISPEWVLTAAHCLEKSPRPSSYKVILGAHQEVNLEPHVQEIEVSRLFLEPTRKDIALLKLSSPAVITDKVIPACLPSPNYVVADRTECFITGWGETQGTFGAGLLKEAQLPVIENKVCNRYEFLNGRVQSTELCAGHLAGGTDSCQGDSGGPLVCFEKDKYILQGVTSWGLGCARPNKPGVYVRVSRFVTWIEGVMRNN
QUANTITY_KIND: IC50 (nM)

For the molecule shown here, N=C(N)NCCC[C@@H](NS(=O)(=O)Cc1ccccc1)C(=O)NCC(=O)N[C@H]1CCCN(C(=N)N)C1O (some centres undefined) , give the reported IC50.
1190

(A) CCOC(=O)c1ccc(CCOC(=O)N[C@H](CC2CCN(C(=N)N)CC2)C(=O)NCC(=O)N[C@H]2CCCN(C(=N)N)C2O)cc1 (some centres undefined)
(B) N=C(N)N1CCCC(C[C@@H](NS(=O)(=O)Cc2ccccc2C(=O)O)C(=O)NCC(=O)N[C@H]2CCCN(C(=N)N)C2O)C1 (single isomer, unassigned)
(C) COC(=O)c1cccc(CS(=O)(=O)N[C@H](CC2CCN(C(=N)N)CC2)C(=O)NCC(=O)N[C@H]2CCCN(C(=N)N)C2O)c1 (some centres undefined)
Place the items in sequence of falling IC50. Give the labels in the order specified.
B, A, C
(B: 2500 nM, A: 1440 nM, C: 387 nM)

---

Target: Coagulation factor X (Homo sapiens, UniProt P00742)
Assay: In vitro inhibition of human Coagulation factor X.
QUANTITY_KIND: IC50 (nM)

For the compound shown here, N=C(N)N1CCCC(C[C@@H](NS(=O)(=O)Cc2ccccc2C(=O)O)C(=O)NCC(=O)N[C@H]2CCCN(C(=N)N)C2O)C1 (stereo in doubt) , give the reported IC50.
4.2

(I) N=C(N)N1CCC(C(NS(=O)(=O)Cc2ccccc2)C(=O)NCC(=O)N[C@H]2CCCN(C(=N)N)C2O)CC1 (stereo partly drawn)
(II) N=C(N)N1CCC(C[C@@H](NS(=O)(=O)Cc2ccccc2C(=O)O)C(=O)NCC(=O)N[C@H]2CCCN(C(=N)N)C2O)CC1 (stereo partly drawn)
From the items above, decide which of I and II has the lower IC50 reading. Selection: enter the item's label.
I
(I: 1.1 nM, II: 5.7 nM)
